Protocol details: NCI Yeast Anticancer Drug Screen. Data for the mec2-1 strain (AID 157)
Experimental parameters: S. cerevisiae mec2-1 strain, at 5.0 µM (retest, dose inferred, filed as 0.5), active compounds read high
The panel holds about 79,000 compounds, 15% with a hit somewhere; the sample as a whole holds those more often.

Molecule	Unit descriptor	growth inhibition
O=[N+]([O-])c1cc(C(F)(F)F)cc2n[se]nc12	%	81
Nc1nnc(N)n1-n1c(N)nnc1N	%	-22
CNC(=O)OCC1C2=C(C(=O)C(C)=C(N)C2=O)N2CC3C(N3C)C12OC (configuration not stated)	%	20
c1cc2c(cc1NC1=NCCO1)CCCC2	%	6
c1cc2c(c(NC3=NCCN3)c1)CCCC2	%	1
CCCCN1C(=O)C2C(C1=O)C1(Cl)C(Cl)=C(Cl)C2(Cl)C1(Cl)Cl (configuration not stated)	%	17
CC1CN1C1=C(Cl)C(=O)C(N2CC2C)=C(Cl)C1=O (configuration not stated)	%	15
O=C(CI)c1ccc[nH]1	%	79
CC(=O)NC1C(S[As](C)C)OC(COC(C)=O)C(OC(C)=O)C1OC(C)=O (configuration not stated)	%	18
c1ccc(P(CC[As](c2ccccc2)c2ccccc2)CC[As](c2ccccc2)c2ccccc2)cc1	%	81
CCCCCCC1CCC2CCCC(C)N12 (configuration not stated)	%	-4
Clc1ccc(CCN2CCOCC2)c(Cl)c1	%	0
